pIC50 by entry:
System: M. tuberculosis H37Rv growth inhibition
Test: M. tuberculosis H37Rv growth inhibitors, H37Rv strain (AID 1626)
By convention, pIC50 is the negative base-10 log of a molar concentration.

| compound | study system | quantity name | reported measurement |
| --- | --- | --- | --- |
| COc1ccc(/C=C/c2cc(-c3ccc(C)cc3)o[n+]2C)cc1 | M. tuberculosis H37Rv growth inhibition | pIC50 | 5.49 |
| COc1ccc(C(=O)Nc2cc(OC)c(NC(=O)c3ccco3)cc2OC)cc1 | M. tuberculosis H37Rv growth inhibition | pIC50 | 5.54 |
| O=C(CSc1ccc(-c2ccccn2)nn1)c1ccc(F)cc1 | M. tuberculosis H37Rv growth inhibition | pIC50 | 4.65 |

Prompt: What value of pIC50 has been reported for the following compound? CC(=O)CC(=O)Nc1ccc2ccccc2c1
Response: 4.87

Prompt: What value of pIC50 has been reported for the following compound? C=CCn1c(O)c(C(CC)=Nc2ccc3c(c2)CCC3)c(=O)[nH]c1=O
Response: 4.75

Prompt: What value of pIC50 has been reported for the following compound? O=C(C1CCN(c2nnc(-n3cccc3)s2)CC1)N1CCc2ccccc2C1
Response: 6.15

Prompt: What value of pIC50 has been reported for the following compound? O=c1cc(N=Nc2ccc(Cl)cc2)[nH]c(=O)[nH]1
Response: 4.89

---

pIC50 by entry:
Tested on: M. tuberculosis H37Rv growth inhibition
Experiment: M. tuberculosis H37Rv growth inhibitors, H37Rv strain (AID 1626)
pIC50: −log10 of the molar value.

Consider the following illustrative entries.
| compound | pIC50 |
| --- | --- |
| CCOc1ccc(NC(=O)CCCc2cc(-c3ccc(OCC)cc3)on2)cc1 | 4.33 |
| O=C(CSc1nnc(-c2ccccc2Br)o1)N1CCc2ccccc2C1 | 5.63 |
| COC(=O)/C(=C1/Oc2cc(C)oc(=O)c2S1)C(F)(F)F | 6.16 |
| COc1ccc(C2/C=C\CN(C(=O)Nc3ccc(C(F)(F)F)cc3)CC(=O)N2Cc2ccc(F)cc2)cc1 (configuration not stated) | 5.24 |
| Cc1cccc(C)c1N1CCN(c2ccc3nnc(C(F)(F)F)n3n2)CC1 | 4.93 |
| Cc1ccc(NCCC(=O)c2cccs2)cc1 | 4.61 |

Prompt: What value of pIC50 has been reported for the following compound? CCc1ccc(CCC(=O)Nc2ccc(OC)cc2)o1
Response: 4.44

Prompt: What value of pIC50 has been reported for the following compound? COc1ccc(-c2csc(-c3cccs3)n2)cc1OC
Response: 4.95

Prompt: What value of pIC50 has been reported for the following compound? Cc1nn(-c2ccccc2)c(C)c1C(=O)Nc1nnc(-c2ccco2)o1
Response: 4.87

Prompt: What value of pIC50 has been reported for the following compound? COc1cc(NC(=O)c2c(F)c(F)c(F)c(F)c2F)c(OC)cc1Cl
Response: 6.13

Prompt: What value of pIC50 has been reported for the following compound? O=C(CNC(=O)c1ccc(-c2ccccc2)cc1)OCc1c(F)cccc1Cl
Response: 5.13

Prompt: What value of pIC50 has been reported for the following compound? CCOC(=O)Cc1csc(NC(=O)c2c(O)c3ccccc3n(CCC(C)C)c2=O)n1
Response: > 6.71

---

System: M. tuberculosis H37Rv growth inhibition
Assay: M. tuberculosis H37Rv growth inhibitors, H37Rv strain (AID 1626)
quantity name: IC50

| molecule | IC50 |
| --- | --- |
| COc1c(C)cc(C(=O)C2CCCN(Cc3cccc(C)n3)C2)cc1C (stereo unspecified) | 18.6 µM |
| O=C(Nc1nc(-c2ccccn2)cs1)C1CC(=O)N(c2ccc3c(c2)OCCO3)C1 (stereo unspecified) | 17.2 µM |
| COc1ccc(CNC(=O)c2c(C)nc3ccccn23)cc1 | 1.77 µM |

Prompt: Could you share what IC50 was measured for O=C(Nc1nnc(-c2ccc(F)cc2)o1)c1cccc([N+](=O)[O-])c1 , tested on M. tuberculosis H37Rv growth inhibition?
Response: 5.68 µM

Prompt: Could you share what IC50 was measured for O=C(Nc1ccccc1OC(=O)c1ccc(Cl)cc1)c1ccc(Cl)cc1 , tested on M. tuberculosis H37Rv growth inhibition?
Response: 12 µM

---

CC50 by entry:
System: M. tuberculosis H37Rv growth inhibition
Assay: M. tuberculosis H37Rv growth inhibitors, H37Rv strain (AID 1626)
Conditions: measured here: Vero cell cytotoxicity

Consider the following illustrative entries.
| compound | study system | CC50 |
| --- | --- | --- |
| O=c1[nH]c(-c2ccccn2)nc2ccccc12 | M. tuberculosis H37Rv growth inhibition | > 40 µM |
| Cc1ccc(Cc2cnc(N3C(=N)SC(C)C3=O)s2)cc1 (configuration not stated) | M. tuberculosis H37Rv growth inhibition | > 40 µM |
| CC(C)(C)c1ccc(-c2nc(NCc3cccnc3)c3ccccc3n2)cc1 | M. tuberculosis H37Rv growth inhibition | > 40 µM |

Prompt: What value of CC50 has been reported for the following compound? COc1cc(-c2ccc3oc(-c4ccsc4)c(C#CC4(O)CCCCC4)c3c2)cc(OC)c1OC
Response: > 40 µM

Prompt: What value of CC50 has been reported for the following compound? Cc1cc(N2CCN(c3ccccc3)CC2)nc(-n2nc(C)cc2C)n1
Response: 18.3 µM

Prompt: What value of CC50 has been reported for the following compound? COc1ccc(-c2ccnc3nc(N4CCN(c5ccccc5)CC4)nn23)cc1
Response: > 40 µM

Prompt: What value of CC50 has been reported for the following compound? COc1ccc(CNCc2cn(-c3cccc(F)c3)nc2-c2ccc(C)o2)cc1
Response: > 40 µM

Prompt: What value of CC50 has been reported for the following compound? O=C1c2cccc3c([N+](=O)[O-])ccc(c23)C(=O)N1Cc1cccnc1
Response: 6.25 µM

Prompt: What value of CC50 has been reported for the following compound? Cc1ccc(C(C)C)c(OCc2nn(CC(=O)c3ccc(OC(F)F)cc3)c3[n+]2CCCCC3)c1
Response: > 40 µM

Prompt: What value of CC50 has been reported for the following compound? O=C(N[C@H](CO)[C@H](O)c1ccc([N+](=O)[O-])cc1)C(Cl)Cl
Response: > 40 µM

Prompt: What value of CC50 has been reported for the following compound? Cc1cccc(NC(=O)c2nc[nH]c2C(=O)N[C@@H](CC(C)C)C(=O)OCc2ccccc2)c1
Response: 39.1 µM

---

System: M. tuberculosis H37Rv growth inhibition
Assay: M. tuberculosis H37Rv growth inhibitors, H37Rv strain (AID 1626)
Settings: measured here: Vero cell cytotoxicity
CC50 by entry:

Consider the following illustrative entries.
| compound | reported measurement |
| --- | --- |
| COCCCNC(=O)COC(=O)c1ccc(-c2nc3ccccc3s2)s1 | > 40 µM |
| CCCSC1=C(C#N)C(c2cccs2)C(C(=O)Nc2ccccc2)=C(C)N1 (stereo unspecified) | > 40 µM |
| O=C(Nc1ccc(N2CCN(C(=O)c3ccco3)CC2)cc1)C(c1ccccc1)c1ccccc1 | > 40 µM |
| COc1cnc(-c2ccccn2)nc1Oc1ccc(F)cc1F | > 40 µM |
| Cc1ccc(C(=O)/C=C/C(=O)c2ccc(C)cc2)cc1 | > 40 µM |

Attention now shifts to the item below.
Prompt: Could you share what CC50 was measured for CCOc1ccc(NC(=O)Nc2ccccc2SC)cc1 , tested on M. tuberculosis H37Rv growth inhibition?
Response: > 40 µM

---

CC50 by entry:
System: M. tuberculosis H37Rv growth inhibition
Experiment: M. tuberculosis H37Rv growth inhibitors, H37Rv strain (AID 1626)
Settings: measured here: Vero cell cytotoxicity

| compound structure string | reported measurement |
| --- | --- |
| COc1cc(C)c(/C=C/C(C)=C/C=C/C(C)=C/C(=O)O)c(C)c1C | > 40 µM |
| O=C(Nc1ncc(Cc2ccccc2)s1)c1cccs1 | > 40 µM |

Attention now shifts to the item below.
Prompt: What value of CC50 has been reported for the following compound? CC(=O)c1sc(NC(=O)c2cc(-c3ccccc3)nn2-c2ccccc2)nc1C
Response: > 40 µM

---

System: M. tuberculosis H37Rv growth inhibition
Test: M. tuberculosis H37Rv growth inhibitors, H37Rv strain (AID 1626)
Conditions: measured here: Vero cell cytotoxicity
quantity name: CC50

| molecule | study system | CC50 |
| --- | --- | --- |
| CCc1ccccc1NC(=O)c1cccc(NC(=O)/C=C/c2ccco2)c1 | M. tuberculosis H37Rv growth inhibition | > 40 µM |

Prompt: Could you share what CC50 was measured for COc1ccc(NC(=O)NC(C)C2CC3CCC2C3)cc1 (stereo not given) , tested on M. tuberculosis H37Rv growth inhibition?
Response: > 40 µM

Prompt: Could you share what CC50 was measured for CC(=O)Nc1nc(NC(=O)/C=C/c2ccccc2)n(-c2ccccc2)n1 , tested on M. tuberculosis H37Rv growth inhibition?
Response: 27.7 µM
